# EXPERIMENTAL_SYSTEM: T1, HER3 extracellular domain recombinant protein (human, UniProt P21860 20-643)
# T1 construct: extracellular domain; also called HER3 extracellular domain protein; HER3 protein
# T1 sequence (P21860 20-643): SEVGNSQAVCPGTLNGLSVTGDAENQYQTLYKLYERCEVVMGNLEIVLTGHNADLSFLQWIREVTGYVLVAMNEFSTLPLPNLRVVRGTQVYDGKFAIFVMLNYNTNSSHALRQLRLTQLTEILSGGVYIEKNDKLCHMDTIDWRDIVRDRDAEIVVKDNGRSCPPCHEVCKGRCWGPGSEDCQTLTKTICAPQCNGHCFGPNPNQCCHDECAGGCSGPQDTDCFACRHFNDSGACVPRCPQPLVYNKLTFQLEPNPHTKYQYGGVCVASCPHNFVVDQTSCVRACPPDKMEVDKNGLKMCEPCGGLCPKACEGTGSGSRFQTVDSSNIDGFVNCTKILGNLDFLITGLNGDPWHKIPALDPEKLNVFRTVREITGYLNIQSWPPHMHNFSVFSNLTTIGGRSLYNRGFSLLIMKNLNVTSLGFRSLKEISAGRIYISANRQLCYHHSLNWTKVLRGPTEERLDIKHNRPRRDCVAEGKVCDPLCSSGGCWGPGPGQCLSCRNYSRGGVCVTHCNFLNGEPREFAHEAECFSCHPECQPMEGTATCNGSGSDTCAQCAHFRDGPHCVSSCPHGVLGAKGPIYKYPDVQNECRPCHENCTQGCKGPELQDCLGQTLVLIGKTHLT
# EXPERIMENT_DESCRIPTION: SPR, ProteOn XPR36; antibody captured by goat anti-human antibody, HER3 extracellular domain 1.25-20 nM as analyte, Langmuir model
ENDPOINT_LABEL: koff (s⁻¹)
State the answer as a number, implicitly in s⁻¹.

humanized antibody h1044-0 (antibody, V domains shown, also called humanized h1044-0 antibody after CDR transplantation) VH: QVQLVQSGAEVKKPGSSVKVSCKASGGTFSNYWIDWVRQAPGQGLEWMGEILPGSGGTDYNEKFKGRVTITADTSTSTAYMELSSLRSEDTAVYYCARDDYDVFAYWGQGTLVTVSS VL: DIVMTQSPGTLSLSPGERATLSCRSSKSLLHSNGITYLYWYQQKPGQAPRLLIYQMSNLASGIPDRFSGSGSGTDFTLTISRLEPEDFAVYYCAQNLELPWTFGQGTKVEIKR: 0.00427

For the next question, use this binder.
Tell me its koff given humanized antibody with VH76 back mutation (antibody, V domains shown) VH: QVQLVQSGAEVKKPGSSVKVSCKASGGTFSNYWIDWVRQAPGQGLEWMGEILPGSGGTDYNEKFKGRVTITADTSSSTAYMELSSLRSEDTAVYYCARDDYDVFAYWGQGTLVTVSS VL: DIVMTQSPGTLSLSPGERATLSCRSSKSLLHSNGITYLYWYQQKPGQAPRLLIYQMSNLASGIPDRFSGSGSGTDFTLTISRLEPEDFAVYYCAQNLELPWTFGQGTKVEIKR as the entry.
0.00344
